Test: folding stability dG unfold (combined trypsin and chymotrypsin); higher = more stable
// folding stability dG unfold lookup, one value per entry
Only the number, expressed in kcal/mol, is required.

# count of solved cases: 2
{"columns": ["macromolecule.sequence", "assay.result"],
 "data": [
  ["SAGGSAELPSLGAEITVTEDPNRNTYTVTVPLVAPDGAPVGTLTVPFSSLEEARAFLRAQGLGELLSAGGSA [r15_127_JUSTAS]", 2.77],
  ["SAGAGKTPDGKEYIIPFTFKNENGETTPEEIEEKIKEFTAKHPEVKIKEIKAIKEGDSVKVLVVVEKPASAG [r5_688_TrMRF]", 2.74]
]}

# evaluate next
Q) Input SGMVTLEDIAAAPPGTPVVVTTKKQGSKNLTFIDAVVDGARSSASYPSIEEARKELEAVGYPVEFVDPAESA [r9_1021_JUSTAS] , output reported folding stability dG unfold.
A) -0.429
